system: Klebsiella aerogenes DSM 30053; assay: fold change of Cadaverine concentration vs plate DMSO controls (fold change (ratio)); higher = more amine produced, active = hit call of the paper (significant change in both replicates, either direction); settings: incubation time: 27 h, anaerobic, 37 °C
Where a name gives a salt, the structure may show the parent alone.
EXPERIMENTAL_READOUT: fold change of Cadaverine concentration

COMPOUND: O=C(O)/C=C/c1ccc(Cn2ccnc2)cc1 [Ozagrel hydrochloride] (20 µM)
RECORDED_NUMBER: 0.986
--
COMPOUND: NC[C@H]1O[C@H](O[C@H]2[C@H](O[C@@H]3O[C@H](CO)[C@@H](O)[C@H]3O)[C@@H](O)[C@H](N)C[C@@H]2N)[C@H](N)[C@@H](O)[C@@H]1O [Ribostamycin sulfate salt] (20 µM)
RECORDED_NUMBER: 0.994
--
COMPOUND: CCc1nc(N)nc(N)c1-c1ccc(Cl)cc1 [Pyrimethamine] (20 µM)
RECORDED_NUMBER: 0.989
--
COMPOUND: OCCN1CCN(CC/C=C2/c3ccccc3Sc3ccc(C(F)(F)F)cc32)CC1 [Flupentixol dihydrochloride cis-(Z)] (20 µM)
RECORDED_NUMBER: 1.02
--
COMPOUND: CCCOc1ccc2[nH]c(NC(=O)OC)nc2c1 [Oxibendazol] (20 µM)
RECORDED_NUMBER: 0.987
--
COMPOUND: C[C@H]1O[C@H](O[C@H]2[C@H](O)[C@@H](O)[C@@H](O[C@@H]([C@H](O)[C@@H](O)C=O)[C@H](O)CO)O[C@@H]2CO)[C@H](O)[C@@H](O)[C@@H]1N[C@H]1C=C(CO)[C@@H](O)[C@H](O)[C@H]1O [Acarbose] (20 µM)
RECORDED_NUMBER: 0.996
--
COMPOUND: CC(Cc1cccc(C(F)(F)F)c1)NCCOC(=O)c1ccccc1 (configuration not stated) [Benfluorex] (20 µM)
RECORDED_NUMBER: 0.99
--
COMPOUND: CC(C)NC[C@H](O)COc1ccc(CC(N)=O)cc1 [(S,-) Atenolol] (20 µM)
RECORDED_NUMBER: 1.02
--
COMPOUND: O=C1c2cccc3c2[C@H](CCC3)CN1[C@@H]1CN2CCC1CC2 [Palonosetron hydrochloride] (20 µM)
RECORDED_NUMBER: 0.983
--
COMPOUND: CN(C)CCOC(=O)COc1ccc(Cl)cc1 [Meclofenoxate hydrochloride] (20 µM)
RECORDED_NUMBER: 0.979
--
COMPOUND: O=C(O)c1ccccc1Nc1cc(Cl)ccc1C(=O)O [Lobenzarit disodium] (20 µM)
RECORDED_NUMBER: 1
--
COMPOUND: CCN(CCO)CCCC(C)Nc1ccnc2cc(Cl)ccc12 (configuration not stated) [Hydroxychloroquine sulfate] (20 µM)
RECORDED_NUMBER: 0.982
--
COMPOUND: COc1cc(N)c(Cl)cc1C(=O)NC1CCN(Cc2ccccc2)CC1 [Clebopride maleate] (20 µM)
RECORDED_NUMBER: 0.999
--
COMPOUND: O=c1cc(-c2ccc(O)c(O)c2)oc2cc(O)cc(O)c12 [Luteolin] (20 µM)
RECORDED_NUMBER: 1.02
--
COMPOUND: C[N+]1(C)CCC(OC(=O)C(O)(c2ccccc2)C2CCCC2)C1 (configuration not stated) [Glycopyrrolate bromide] (20 µM)
RECORDED_NUMBER: 1.01
--
COMPOUND: CN(C)CCOC(c1ccccc1)c1ccccc1 [Diphenhydramine hydrochloride] (20 µM)
RECORDED_NUMBER: 0.985
--
COMPOUND: CC(=O)N(O)CCCCCNC(=O)CCC(=O)N(O)CCCCCNC(=O)CCC(=O)N(O)CCCCCN [Deferoxamine mesylate] (20 µM)
RECORDED_NUMBER: 1.03
--
COMPOUND: Cc1c(NC(C)C)c(=O)n(-c2ccccc2)n1C [Isopyrin hydrochloride] (20 µM)
RECORDED_NUMBER: 1
--
COMPOUND: CC(=O)Oc1ccc(C(=C2CCCCC2)c2ccc(OC(C)=O)cc2)cc1 [Cyclofenil] (20 µM)
RECORDED_NUMBER: 1
--
COMPOUND: Clc1ccccc1C(c1ccccc1)(c1ccccc1)n1ccnc1 [Clotrimazole] (20 µM)
RECORDED_NUMBER: 1.01
--
COMPOUND: CC[C@H]1OC(=O)[C@H](C)[C@@H](O[C@H]2C[C@@](C)(OC)[C@@H](O)[C@H](C)O2)[C@H](C)[C@@H](O[C@@H]2O[C@H](C)C[C@H](N(C)C)[C@H]2O)[C@](C)(O)C[C@@H](C)CN(C)[C@H](C)[C@@H](O)[C@]1(C)O [Azithromycin] (20 µM)
RECORDED_NUMBER: 0.99
--
COMPOUND: CC(C)COCC(CN(Cc1ccccc1)c1ccccc1)N1CCCC1 (configuration not stated) [Bepridil hydrochloride] (20 µM)
RECORDED_NUMBER: 1.01
--
COMPOUND: CN1CCc2c(c3ccccc3n2Cc2ccccc2)C1 [Mebhydroline 1,5-naphtalenedisulfonate] (20 µM)
RECORDED_NUMBER: 1.01
--
COMPOUND: O=C1Cc2cc(CCN3CCN(c4nsc5ccccc45)CC3)c(Cl)cc2N1 [Ziprasidone hydrochloride monohydrate] (20 µM)
RECORDED_NUMBER: 1.06
--
COMPOUND: Cc1cccc(C)c1OCC(C)N (configuration not stated) [Mexiletine hydrochloride] (20 µM)
RECORDED_NUMBER: 1.02
--
COMPOUND: CCC(=O)O[C@@H]1CC(=O)O[C@H](C)C/C=C/C=C/[C@H](O)[C@H](C)C[C@H](CC=O)[C@H](O[C@@H]2O[C@H](C)[C@@H](O[C@H]3C[C@@](C)(O)[C@@H](OC(=O)CC)[C@H](C)O3)[C@H](N(C)C)[C@H]2O)[C@H]1OC [Midecamycin] (20 µM)
RECORDED_NUMBER: 1.05
--
COMPOUND: OC[C@@H](O)[C@@H](O[C@H]1O[C@H](CO)[C@@H](O)[C@H](O)[C@H]1O)[C@H](O)[C@@H](O)CO [Maltitol] (50 µM)
RECORDED_NUMBER: 1.01
